System under test: T1, human GIP receptor (human) (UniProt P48546)
T1 sequence (looked up): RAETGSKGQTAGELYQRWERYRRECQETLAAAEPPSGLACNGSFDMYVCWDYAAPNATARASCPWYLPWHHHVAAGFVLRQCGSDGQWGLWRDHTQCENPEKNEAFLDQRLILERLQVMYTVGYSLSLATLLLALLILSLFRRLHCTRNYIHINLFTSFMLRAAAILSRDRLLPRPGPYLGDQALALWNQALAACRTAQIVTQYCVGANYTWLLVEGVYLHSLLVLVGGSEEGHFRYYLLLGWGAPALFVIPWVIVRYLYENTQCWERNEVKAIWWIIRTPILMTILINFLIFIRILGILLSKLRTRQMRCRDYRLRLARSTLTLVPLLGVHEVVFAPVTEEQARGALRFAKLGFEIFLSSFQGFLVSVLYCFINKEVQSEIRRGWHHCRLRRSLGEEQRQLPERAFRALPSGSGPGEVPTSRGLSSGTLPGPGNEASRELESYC
Test summary: cell-based or functional assay
Non-standard residues stand in square brackets, D forms with d. No end group written: not given here. αMeL = CC(C)C[C@](C)(N)C(=O)O; Aib = CC(C)(N)C(=O)O
Recorded metric: log10 of cAMP Rel EC50 (1% HSA) (log10 of the value in nM)
Base-10 log of cAMP Rel EC50 (1% HSA), unit nM.

{"Binder": "YXQGTFTSDXSKXLDKKAQXAFIEYLIEXGPSSGAPPPSGSEE (non-natural residues, C-terminal amide, acylated Lys with fatty diacid; synthetic construct; SITE 2: note = 2-Aminoisobutyric Acid; SITE 10: note = 3-(4-Pyridyl)-L-alanine; SITE 13: note = alpha-methyl-leucine; SITE 17: note = Lysine is chemically modified through conjugation of the epsilon-amino group of the Lysine side chain with (2-[2-(2-Amino-ethoxy)-ethoxy]-acetyl)) [Example 902]", "Recorded metric": "log10 of cAMP Rel EC50 (1% HSA)", "Readout value": 1.45}
{"Binder": "YXQGTXTSDXXIXLDXKAAXEFIEXLIEGGPSSGAPPPSGSE (synthetic construct; SITE 2: note = 2-Aminoisobutyric Acid; SITE 6: note = alpha-methyl-2-fluoro-L-phenylalanine; SITE 10: note = 3-(4-Pyridyl)-L-alanine; SITE 11: note = alpha-methyl-L-serine; SITE 13: note = alpha-methyl-leucine; SITE 16: note = L-ornithine; SITE 17: note = Lysine is chemically mo) [Example 702]", "Recorded metric": "log10 of cAMP Rel EC50 (1% HSA)", "Readout value": 0.10}
{"Binder": "Y[Aib]QGTFTSDYSK[αMeL]LDKKAQQAFVQWLIE[dA]GPSSGEPPPSEG-NH2 (not fully specified (residue 17)) [Example 342]", "Recorded metric": "log10 of cAMP Rel EC50 (1% HSA)", "Readout value": 1.85}

Please look at this binder and report its log10 of cAMP Rel EC50 (1% HSA): YXQGTFTSDXSQXLDKKAQXQFIEXLIEGGPSSGAPPPSGS (non-natural residues, acylated Lys ((γGlu)2-C18 diacid), C-terminal amide; synthetic construct; SITE 2: note = 2-Aminoisobutyric Acid; SITE 10: note = 3-(4-Pyridyl)-L-alanine; SITE 13: note = alpha-methyl-leucine; SITE 17: note = Lysine is chemically modified through conjugation of the epsilon-amino group of the Lysine side chain with (gamma-Glu)2-CO-(CH2)16-CO2H; SITE 20:) [Example 934] 1.45

Look up log10 of cAMP Rel EC50 (1% HSA) of YXQGTFTSDXSXXLDKKAQXAFIEXLIEGGPSSGAPPPSGS (synthetic construct; SITE 2: note = 2-Aminoisobutyric Acid; SITE 10: note = 3-(4-Pyridyl)-L-alanine; SITE 12: note = L-ornithine; SITE 13: note = alpha-methyl-leucine; SITE 17: note = Lysine is chemically modified through conjugation of the epsilon-amino group of the Lysine side chain with (2-[2-(2-) [Example 497] and report it. 1.51

Output measured log10 of cAMP Rel EC50 (1% HSA) for this item: YXQGTXTSDXXIXLDXKAAXEFIEXLIEGGPSSGEPPPSGTE (synthetic construct; SITE 2: note = 2-Aminoisobutyric Acid; SITE 6: note = alpha-methyl-2-fluoro-L-phenylalanine; SITE 10: note = 3-(4-Pyridyl)-L-alanine; SITE 11: note = alpha-methyl-L-serine; SITE 13: note = alpha-methyl-leucine; SITE 16: note = L-ornithine; SITE 17: note = Lysine is chemically mo) [Example 719] -0.05

Return value of log10 of cAMP Rel EC50 (1% HSA) for input Y[Aib]QGTFTSDYSI[αMeL]LDKQAAKQFVEWLIA[Aib]GPSSGEPPPGTG-NH2 (not fully specified (residue 20)) [Example 336] , no commentary. 1.81

Tell me log10 of cAMP Rel EC50 (1% HSA) reported for YXQGTFTSDXSKXLDKKAQXAFIEYLIEXGPSSGAPPPSGS (non-natural residues, acylated Lys, C-terminal amide; synthetic construct; SITE 2: note = 2-Aminoisobutyric Acid; SITE 10: note = 3-(4-Pyridyl)-L-alanine; SITE 13: note = alpha-methyl-leucine; SITE 17: note = Lysine is chemically modified through conjugation of the epsilon-amino group of the Lysine side chain with (2-[2-(2-Amino-ethoxy)-ethoxy]-acetyl)) [Example 915] 1.18

Provide only the value of recorded log10 of cAMP Rel EC50 (1% HSA) for Y[Aib]QGTFTSDYSI[αMeL]LDKQAAKQFVEWLIA[Aib]GPSSGEPPPGSG-NH2 (not fully specified (residue 20)) [Example 335] 1.67

Identify the reported log10 of cAMP Rel EC50 (1% HSA) for the following entry. YXQGTFTSDXSQXLDKKAQXAFIEYLIEXGPSSGAPPPSGSE (Aib, 4Pal, Me4Pal, alpha-methyl-Leu, lipidated Lys, amide; synthetic construct; SITE 2: note = 2-Aminoisobutyric Acid; SITE 10: note = 3-(4-Pyridyl)-L-alanine; SITE 13: note = alpha-methyl-leucine; SITE 17: note = Lysine is chemically modified through conjugation of the epsilon-amino group of the Lysine side chain with D-Glutamic acid-(gamma-Glu)-D-Glutamic) [Example 927] 1.35

Return log10 of cAMP Rel EC50 (1% HSA) for the following binder: YXQGTFTSDXSQXLDKKAQXAFIEYLIEXGPSSGAPPPSEE (non-natural residues; lipidated Lys; D-Glu; synthetic construct; SITE 2: note = 2-Aminoisobutyric Acid; SITE 10: note = 3-(4-Pyridyl)-L-alanine; SITE 13: note = alpha-methyl-leucine; SITE 17: note = Lysine is chemically modified through conjugation of the epsilon-amino group of the Lysine side chain with (2-[2-(2-Amino-ethoxy)-ethoxy]-acetyl)) [Example 919] 1.41
